System: SF-539 CNS
test-name: NCI tumour cell line growth inhibition, 48 h
value-kind: TGI

These solved cases illustrate the format of a correct answer.
Lookup: API: value(readout= TGI, system= SF-539 CNS, query= COc1cc(OC2OC(CO)C(O)C(O)C2O)c2c(c1)O[C@@H]1[C@H](O)Oc3cc(OC)c(OC)cc3[C@]1(O)C2=O (stereo not given in full) )
Found: > 25 µM

Lookup: Hi! What's the reported TGI for CCCC(=O)Nc1c(I)cc(I)c(CC(CC)C(=O)O)c1I (stereo not given) on SF-539 CNS?
Found: > 100 µM

Lookup: What value of TGI on SF-539 CNS does COC1C(OC(C)=O)CC(=O)OC(C)C/C=C/C=C\C(O)C(C)CC(CC=O)C1OC1OC(C)C(OC2CC(C)(O)C(OC(=O)CC(C)C)C(C)O2)C(N(C)C)C1O (stereo not given) have?
Found: > 100 µM

Continuing:
Lookup: Param readout= TGI; system= SF-539 CNS; entry= N#CC(C(=O)O)C(c1c(Cl)cccc1Cl)C(C#N)C(=O)O (stereo not given) ; returns value.
Found: > 100 µM

Lookup: Please tell me: TGI of C=C(C)[C@@H]1CC[C@]2(CN)CC[C@]3(C)[C@H](CC[C@@H]4[C@@]5(C)CCC(N)[C@@](C)(CO)[C@@H]5CC[C@]43C)[C@@H]12 (stereo not given in full) , system SF-539 CNS?
Found: 3.26 µM

Lookup: Provide the documented TGI with SF-539 CNS as the system for O=C1CN(c2ccccc2)C(=O)CN1CCN1CC(=O)N(c2ccccc2)CC1=O
Found: > 100 µM

Lookup: Provide value of TGI for this record tested with SF-539 CNS: COc1ccc2c(c1)c(=O)c1c(NCCCN(C)C)ccc3ncn2c31
Found: 17 µM

Lookup: # value lookup — system SF-539 CNS, readout TGI, item CC(C)=CCc1c(O)c(C(=O)CC(C)C)c(O)c2c(-c3ccccc3)cc(=O)oc12
Found: 22.5 µM

Lookup: // fetch SF-539 CNS TGI for NS(=O)(=O)c1nnc(NC(=O)/C=C/C(=O)O)s1
Found: > 100 µM

Lookup: Look up TGI with SF-539 CNS for this compound: O=C(NNC(=O)c1c(Cl)c(Cl)c(Cl)c(Cl)c1-c1nc2ccccc2[nH]1)c1ccc(Cl)cc1
Found: > 100 µM

* * *

Test system: TK-10 renal
test-name: NCI tumour cell line growth inhibition, 48 h
value-kind: TGI

Record excerpt, results attached:
Lookup: If you can, please state the reported TGI value of COc1ccc(-c2cc(-c3ccc(Cl)cc3)nc(SCCCCCCC(=O)NO)n2)cc1 .
Found: > 50 µM

Lookup: Bench note: what TGI did CC(=Nc1ccccc1)C1=C(O)C(Cc2ccc(F)cc2)NC1=O (configuration not stated) show?
Found: > 100 µM

Lookup: Give the measured TGI of Cc1nc2ccccc2c(/C=C/c2ccccc2)c1C(=O)/C=C/c1ccccc1 .
Found: 6.81 µM

---
Lookup: So what's the measured TGI for this one? CC1(C)CN=C(Nc2ccc(F)c(Cl)c2)S1
Found: > 100 µM

Lookup: May I ask what TGI has been recorded for ClCCc1ccccc1CC1=NCCc2ccccc21 ?
Found: > 100 µM

* * *

Tested on: M14 melanoma
test-name: NCI tumour cell line growth inhibition, 48 h
value-kind: TGI

Here are 3 molecules together with their reported answers.
Lookup: # query: TGI | item CCCCCN(CCCCC)C(=O)[C@H](CCC(=O)OCc1ccccc1)NC(=O)c1cc2ccccc2[nH]1 | system: M14 melanoma
Found: > 100 µM

Lookup: Fill in the recorded TGI for this molecule, with M14 melanoma as test system: COC(=O)/C=C/c1cnc2c(c1)oc(=O)n2C
Found: > 100 µM

Lookup: Look up TGI with M14 melanoma for this molecule: COc1cc2c(cc1OC)-c1ncc3cc(OC)c(OC)cc3c1C2
Found: > 50 µM

Next:
Lookup: Field: TGI (M14 melanoma). Entry: N#CC1=C(S)N(C2OC(CO)C(O)C(O)C2O)C(c2ccccc2)=CC1c1cccs1 (centres undefined)
Found: > 100 µM

* * *

System: K-562 leukemia
test-name: NCI tumour cell line growth inhibition, 48 h
Recorded measurements of TGI, one per entry

Lookup: // returns reported TGI for input Cc1ccc(-c2cc(=O)c3cc(C)c(C)c(C(=O)O)c3o2)cc1[N+](=O)[O-]
Found: > 100 µM

Lookup: Sample CCN(CC)CCC(=O)N1C/C(=C/c2ccccc2)C(=O)/C(=C\c2ccccc2)C1 — what was its TGI?
Found: 2.62 µM

Lookup: What value of TGI has been reported for the following compound? Cc1nc2ccccc2c(/C=C/c2ccccc2)c1C(=O)/C=C/c1ccccc1
Found: > 100 µM

Proceed to the following item.
Lookup: I have this compound here, O=C(N[C@@H](Cc1ccccc1)B(O)O)[C@H](Cc1cccc2ccccc12)NC(=O)N1CCOCC1 , and I need its recorded TGI.
Found: 0.0852 µM

* * *

Tested on: RPMI-8226 leukemia
test-name: NCI tumour cell line growth inhibition, 48 h
Item-by-item account of log10(TGI)
Base-10 log of TGI, unit µM.

Below: 3 compounds and their reported log10(TGI).
Lookup: Which log10(TGI) is listed for CCN(CCCl)c1cc(CN(C)C)cc(NC(=O)c2ccc(C(=O)Nc3ccccc3)cc2)c1 ?
Found: 0.50

Lookup: Form field: reported log10(TGI) of CCCCCCCCCCCCC(NC(C)=O)(C(=O)OCC)C(=O)OCC
Found: 1.65

Lookup: What log10(TGI) value was documented for this compound, CCCCn1c(C)c2c(c1C)C(=O)N(CCN1CCN(c3ccccc3Cl)CC1)C2=O ?
Found: 1.74

Next:
Lookup: Returns the measured log10(TGI) for the input compound. Input: CCCCCCC/C=C1\CCC(CN(C)C)C1=O (configuration not stated)
Found: 0.72

Lookup: Requested read-out: log10(TGI). Entry: CC(C)=CCc1c(O)c(C(=O)CC(C)C)c(O)c2c(-c3ccccc3)cc(=O)oc12
Found: 1.22

Lookup: Requested read-out: log10(TGI). Entry: CCCCCCC(O)C(O)CCC(O)C1CCC(CCCCC(O)CC2=CC(C)OC2=O)O1 (configuration not stated)
Found: 1.49

* * *

System: A549 NSCLC
test-name: NCI tumour cell line growth inhibition, 48 h
value-kind: TGI

Please review the following examples before continuing.
Lookup: Request the reported TGI associated with O=C(COC(=O)c1cccc2c(=O)c3ccccc3[nH]c12)Nc1ccc(S(=O)(=O)Nc2ncccn2)cc1
Found: > 100 µM

Lookup: Consider the molecule shown here: CC(C)=CCc1c(O)c(C(=O)CC(C)C)c(O)c2c(-c3ccccc3)cc(=O)oc12 What is its recorded TGI?
Found: > 50 µM

Lookup: Field request: TGI | item: CNC(=O)OCC1=C(COC(=O)NC)C(C)N(c2ccccc2)C1 (stereo not given)
Found: > 100 µM

Lookup: Find the recorded TGI belonging to Fc1ccc2c(c1)cc1ccc3cccc4ccc2c1c34 and report it.
Found: > 100 µM

Turning now to a further record.
Lookup: So what's the measured TGI for this one? CCOC(OCC)[C@H](N)[C@@H](O)[C@@H](O)[C@H]1COC(C)(C)O1
Found: > 100 µM

* * *

Reported TGI values for the following molecules.
System: SW-620 colon
test-name: NCI tumour cell line growth inhibition, 48 h

Below, 3 molecules whose answers are already recorded.
Lookup: Recorded TGI for CCC(C)(C)NS(=O)(=O)c1ccccc1 with SW-620 colon, please?
Found: > 100 µM

Lookup: Given the entry O=C1NC(N2CCCCC2)=N/C1=C\c1ccccc1 , what TGI was observed with SW-620 colon?
Found: > 100 µM

Lookup: Identify the measured TGI of O=C(COC(=O)c1cccc2c(=O)c3ccccc3[nH]c12)Nc1ccc(S(=O)(=O)Nc2ncccn2)cc1 for SW-620 colon.
Found: > 100 µM

---
Lookup: Form field - read-out: TGI; system: SW-620 colon; submitted item: Cn1c(O)c(C=Nc2ccc(Cl)cc2Cl)c(=O)n(C)c1=O
Found: > 100 µM

Lookup: Enter reported TGI observed with SW-620 colon for O=C(Nc1ccc(N2CCNCC2)cn1)c1[nH]ncc1Nc1ncnc2sccc12
Found: 3.19 µM

* * *

System: HOP-92 NSCLC
test-name: NCI tumour cell line growth inhibition, 48 h
Each entry below carries its reported TGI.

The cases that follow already have their TGI on record.
Lookup: Entry CC1(C)OC2COC(c3[nH]nc4c(=O)[nH]c(=O)[nH]c34)C2O1 (configuration not stated) has what TGI?
Found: > 100 µM

Lookup: I'd like to know its TGI. The compound in question is Cc1cc(=O)n2nc(CSc3n[nH]c(=S)s3)sc2n1
Found: > 100 µM

Next up:
Lookup: Give the measured TGI of COc1c2occc2cc2ccc(=O)oc12 .
Found: > 100 µM
